Values were extracted from ChEMBL document CHEMBL1201862.

# System: 786-0
# experiment description: NCI tumour cell line growth inhibition, 48 h
The source made the active and inactive calls. Rule as the data show it: active = GI50 up to about 1.1 µM and inactive = higher.
observation type: GI50

Some solved entries appear below for comparison.
INSERT INTO measurements (compound, recorded_measurement) VALUES
  ('[N-]=[N+]=CC(=O)OCC1NC(=O)C(COC(=O)C=[N+]=[N-])NC1=O (configuration not stated)', '> 100 µM (inactive)'),
  ('CN(C)C(=O)Nc1c([N+](=O)[O-])cc(C(F)(F)F)cc1[N+](=O)[O-]', '> 100 µM (inactive)'),
  ('O=C1c2ccccc2C(=O)[C@@]23O[C@@]12C1(Oc2cccc4cccc(c24)O1)[C@@H]1O[C@@H]1[C@@H]3O', '4.23 µM (inactive)'),
  ('O=C(O)C1=NN(c2ccc(S(=O)(=O)O)cc2)C2(C1)C(Cl)C(=O)N2c1nc2ccccc2s1 (configuration not stated)', '16.1 µM (inactive)'),
  ('COc1cc(OC)c(OC)cc1/C=C/c1cnnc2ccccc12', '> 10 µM (inactive)');

State its GI50 for this compound: C=C1CC[C@@H](C)[C@](C)(CCc2ccoc2)C/C=C\C=C/1C(=O)O
46.6 µM (inactive)
